Each recorded value in this set is attributed to ChEMBL document CHEMBL4842376.

Target: Serine/threonine-protein kinase mTOR (Homo sapiens)
Assay: Inhibition of mTOR (unknown origin) at 1 uM using U-Light-4E-BP1 peptide as a substrate in the presence of ATP incubated for 30 mins by Lance ultra assay relative to control
quantity: inhibition (%)

Challenge: Reported inhibition for Nc1nc2cc(-c3nn(CCCCC(=O)NO)c4ncnc(N)c34)ccc2o1 : what is it?
Response given: 99.4

Challenge: Reported inhibition for Nc1nc2cc(-c3nn(CCCCCC(=O)NO)c4ncnc(N)c34)ccc2o1 : what is it?
Response given: 100

Challenge: Reported inhibition for Nc1ncnc2c1c(-c1cnc3[nH]ccc3c1)nn2CCCCCCCCC(=O)NO : what is it?
Response given: 97.7

Challenge: Reported inhibition for Nc1ncnc2c1c(-c1cnc3[nH]ccc3c1)nn2CCCCCCCC(=O)NO : what is it?
Response given: 98.7

Challenge: Reported inhibition for Nc1nc2cc(-c3nn(CCCCCCCCCC(=O)NO)c4ncnc(N)c34)ccc2o1 : what is it?
Response given: 92.4

Challenge: Reported inhibition for Nc1nc2cc(-c3nn(CCCCCCC(=O)NO)c4ncnc(N)c34)ccc2o1 : what is it?
Response given: 99

Challenge: Reported inhibition for Nc1nc2cc(-c3nn(CCCCCCCC(=O)NO)c4ncnc(N)c34)ccc2o1 : what is it?
Response given: 99.6

Challenge: Reported inhibition for Nc1nc2cc(-c3nn(CCCCCCCCC(=O)NO)c4ncnc(N)c34)ccc2o1 : what is it?
Response given: 99.3

Challenge: Reported inhibition for Nc1ncnc2c1c(-c1cnc3[nH]ccc3c1)nn2CCCCCCCCCC(=O)NO : what is it?
Response given: 97.6

Challenge: Reported inhibition for Nc1ncnc2c1c(-c1cnc3[nH]ccc3c1)nn2CCCCCCC(=O)NO : what is it?
Response given: 98.7

---

System: Huh-7
Assay: cells
Type: functional, cell-based
Settings: Homo sapiens, Huh-7, 72 h
Description: Antiproliferative activity against human Huh-7 cells assessed as inhibition of cell growth measured after 72 hrs by MTT assay
pIC50: −log10 of the molar value.
quantity: pIC50

P: Nc1nc2cc(-c3nn(CCCCCCCCC(=O)NO)c4ncnc(N)c34)ccc2o1
Q: Nc1ncnc2c1c(-c1cnc3[nH]ccc3c1)nn2CCCCCCCCCC(=O)NO
Challenge: Given P and given Q , which shows the smaller recorded pIC50? Kindly give the label for the entry you pick.
Response given: Q
(Q: 5.00, P: 5.83)

---

Recorded IC50 values for a group of compounds are listed next.
Molecular target: Serine/threonine-protein kinase mTOR (Homo sapiens)
Report only the number, with the unit nM understood.

Challenge: Missing value: IC50, Serine/threonine-protein kinase mTOR (Homo sapiens), entry Nc1ncnc2c1c(-c1cnc3[nH]ccc3c1)nn2CCCCCCCCC(=O)NO . Fill in?
Response given: 92.3

Turning now to a further compound:
Challenge: Missing value: IC50, Serine/threonine-protein kinase mTOR (Homo sapiens), entry Nc1nc2cc(-c3nn(CCCCCCC(=O)NO)c4ncnc(N)c34)ccc2o1 . Fill in?
Response given: 7.67

---

Target: Histone deacetylase 2 (Homo sapiens)
Sequence (Q92769 whole entry): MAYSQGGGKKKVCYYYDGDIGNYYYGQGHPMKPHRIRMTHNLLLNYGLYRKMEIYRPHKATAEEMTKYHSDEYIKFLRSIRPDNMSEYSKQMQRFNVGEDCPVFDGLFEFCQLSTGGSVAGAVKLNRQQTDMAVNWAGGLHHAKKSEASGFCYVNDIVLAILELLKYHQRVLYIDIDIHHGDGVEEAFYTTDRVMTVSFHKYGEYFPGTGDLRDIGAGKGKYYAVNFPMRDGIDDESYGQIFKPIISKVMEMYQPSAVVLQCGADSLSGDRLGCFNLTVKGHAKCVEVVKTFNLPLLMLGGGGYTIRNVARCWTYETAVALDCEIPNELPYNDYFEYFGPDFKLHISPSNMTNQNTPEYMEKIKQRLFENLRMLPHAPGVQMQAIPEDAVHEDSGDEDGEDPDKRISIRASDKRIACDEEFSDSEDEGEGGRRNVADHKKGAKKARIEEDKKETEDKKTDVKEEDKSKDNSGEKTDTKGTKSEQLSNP
Recorded IC50 values for a group of compounds are listed next.
Report only the number, with the unit nM understood.

Challenge: Reported IC50 for Nc1ncnc2c1c(-c1cnc3[nH]ccc3c1)nn2CCCCCCCCC(=O)NO : what is it?
Response given: 24

Others:
Challenge: Reported IC50 for Nc1nc2cc(-c3nn(CCCCCCC(=O)NO)c4ncnc(N)c34)ccc2o1 : what is it?
Response given: 3.2
